The reported numbers originate from paper PMC5540273.

- System: HPK1
- settings: concentration: 1 μM, replicates: in singlicate; n = 1;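 note: KINOMEscan kinase panel screen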
Threshold check on %Inh: strictly below 30% is condition met; on or above 30% is condition not met.

Previously resolved entries follow.
molecule="COc1cc2ncn(-c3cc(OCC4CCCO4)c(C(N)=O)s3)c2cc1OC (stereo not drawn) [GSK204607]" group="condition met"
molecule="Cl.O=C(Nc1cccc(-c2nn3ncccc3c2-c2ccnc(Nc3cccnc3)n2)c1)c1c(F)cccc1F [GSK312879]" group="condition not met"
molecule=Cc1cccc(-c2nc(-c3ccc(S(C)(=O)=O)cc3)sc2-c2ccnc(NCCc3ccccc3)c2)c1 group="condition met"
molecule="Cl.NC(=O)c1cccc(Nc2nccc(Nc3ccc(Oc4cccc(Cl)c4)c(Cl)c3)n2)c1 [GW659008]" group="condition not met"
molecule="CS(=O)(=O)c1ccc(-c2nc3n(c2-c2ccncc2)CCC3)cc1 [SKF-105942]" group="condition not met"
molecule="Cc1cc(-c2ccc3c(c2)CC[C@@H](N[C@@H](C)c2ccccc2)C3)cnc1N.Cl [GW412617]" group="condition not met"
molecule="O=c1cc(N2CCOCC2)nc2n(Cc3cccc(Cl)c3Cl)ccn12 [GSK2286295]" group="condition not met"
molecule="COc1ccc(C2=C(Nc3cccc(C(=O)O)c3)C(=O)NC2=O)cc1 [SB-390765]" group="condition met"

Here is another molecule to look at.
Prompt: Lab note: confirm whether the reported %Inh for this molecule is below 30%, equality not counting. molecule: Cc1cccc(-c2nc(Nc3ccncc3)c3ccccc3n2)n1 [GW855857]
Response: condition met

====

- System: JNK3
- Construct: gene MAPK10
- settings: concentration: 1 μM, replicates: in singlicate; n = 1
measuredParameter: %Inh (%)
Please reply with the bare figure in % and do not write the unit itself.

Param item: "CCn1c(-c2ccccn2)nc2cnccc21" ; param system: JNK3; output %Inh: 8

Item: "O=C(Nc1n[nH]c2nc(-c3nccs3)c(Br)cc12)C1CCCC1" | System: JNK3 | %Inh: 17

Field %Inh (system: JNK3) for entry CC1=C(C(=O)Nc2cc3cn[nH]c3cc2F)C(c2ccc(C(F)(F)F)cc2)CC(=O)N1 (stereo not drawn) = 15

Fill in: JNK3 %Inh for "C[C@@H]1CCCCN1c1cc(-c2ccc3c(N)n[nH]c3c2)nc(N)n1" = 0

The reported JNK3 %Inh of "O=c1cc(N2CCOCC2)nc2n(Cc3cccc(Cl)c3Cl)ccn12" is 15

====

- System: PCTK2
- Construct: gene CDK17
- settings: concentration: 1 μM, replicates: in singlicate; n = 1
measuredParameter: %Inh (%)
Report the figure in % without appending any unit label.

compound=NC(=O)c1nnc2ccccc2c1N assayedsystem=PCTK2 measuredparameter=%Inh measured=0
compound=Cn1cncc1-c1ccc2ncnc(Nc3ccc(OCc4ccccc4)cc3)c2c1 assayedsystem=PCTK2 measuredparameter=%Inh measured=0
compound=Cc1cccc(-c2nc(Nc3ccncc3)c3ccccc3n2)n1 assayedsystem=PCTK2 measuredparameter=%Inh measured=10

For reference, reported %Inh for "O=C(Nc1n[nH]c2nc(-c3nccs3)c(Br)cc12)C1CC1" stands at 18

For reference, reported %Inh for "Cn1ccc2ncnc(Oc3ccc(Nc4nc5ccccc5[nH]4)cc3)c21" stands at 0

Noted for "Cn1ccc2ncnc(Oc3cccc(C(=O)Nc4ccccc4)c3)c21" : its %Inh reads 2

%Inh reading for "Cc1cc(N2Cc3ccccc3C2)nc(Nc2ccc(S(=O)(=O)N3CCOCC3)cc2)n1.Cl" : 0

%Inh for "COc1ccc(C2=C(Nc3cccc(C(=O)O)c3)C(=O)NC2=O)cc1" is 8

%Inh in this record for "CCn1c(-c2cccnc2O)nc2cnccc21" : 0

Entry COc1cccc(NC(=O)NC2CCN(c3ccnc(Nc4ccc(F)cc4)n3)C2)c1 (stereo not drawn) , %Inh reported as 14

Given item "CN1C(=O)C(Nc2ccc(Cl)c(C(=O)O)c2)=C(c2ccc(Cl)cc2)C1=O" , the value recorded as its %Inh is 6

Lab note: measured %Inh of "COc1cc2nccc(Nc3ccc(NC(=O)c4ccc(C)cc4)c(O)c3)c2cc1OC.Cl" was 0

Value of measured %Inh for the entry CC1=C(C(=O)Nc2cc3cn[nH]c3cc2F)C(c2ccc(C(F)(F)F)cc2)CC(=O)N1 (stereo not drawn) : 0

get_value(item= "CS(=O)(=O)c1ccc(-c2c(-c3ncn[nH]3)sc(N3CCOCC3)c2C#N)cc1" , readout=%Inh) returns 3

Value of %Inh reported for the compound "Cc1c(Cn2ccn3c(=O)cc(N4CCOCC4)nc23)cccc1C(F)(F)F" is 0

"Cc1c(O)cccc1Nc1ccnc2ccc(C(F)(F)F)cc12.Cl" yielded %Inh of 0

====

- System: PHKG2
- settings: concentration: 1 μM, replicates: in singlicate; n = 1
Listing: %Inh of selected compounds
Unit % implied. Number only.

Recorded results for 6 compounds are shown here.
compound=O=C1NC(=O)C(N2CCc3ccccc32)=C1c1ccccc1Cl measuredparameter=%Inh unitabbreviation=% measured=23
compound="COc1cccc(NC(=O)NC2CCN(c3ccnc(Nc4ccc(F)cc4)n3)C2)c1 (stereo not shown)" measuredparameter=%Inh unitabbreviation=% measured=0
compound=Cl.Oc1ccc(-c2nc(-c3ccccc3)[nH]c2-c2ccncc2)cc1 measuredparameter=%Inh unitabbreviation=% measured=0
compound=CS(=O)(=O)c1ccc(-c2nc3n(c2-c2ccncc2)CCC3)cc1 measuredparameter=%Inh unitabbreviation=% measured=0
compound=COc1ccc(Nc2nccc(-c3cccc(NC(=O)c4cc5cc(F)ccc5[nH]4)c3)n2)cc1 measuredparameter=%Inh unitabbreviation=% measured=0
compound=Cc1cc(-c2ccc3c(c2)CC[C@@H](N[C@@H](C)c2ccccc2)C3)cnc1N.Cl measuredparameter=%Inh unitabbreviation=% measured=3

get_value(item= "COc1ccccc1-c1ccc2c(NC(=O)C3CC3)n[nH]c2n1" , readout=%Inh) returns 0

====

- Tested on: ASK1
- Construct: gene MAP3K5
- settings: concentration: 1 μM, replicates: in singlicate; n = 1
measuredParameter: %Inh (%)
Report only the number, with the unit % understood.

Consider the worked cases shown below.
compound=O=C(Nc1n[nH]c2nc(-c3nccs3)c(Br)cc12)C1CC1 measuredparameter=%Inh measured=4
compound=COc1cccc(-c2cc(-c3c[nH]nc3-c3ccccn3)ccn2)c1 measuredparameter=%Inh measured=0

Form field %Inh, entry "COc1cc2ncnc(Nc3ccc4nc(-c5ccccc5)[nH]c4c3)c2cc1OC.Cl" : 0

GET /value?item= CCCc1ccc(S(=O)(=O)NC2CCN(c3ccnc(Nc4ccc(F)cc4)n3)C2)cc1 (stereo not drawn) &field=%Inh returns 2

# compound "Cc1csc(-c2nc(Nc3ccncc3)c3ccccc3n2)n1" ; its %Inh = 11

get_value(item= "Cn1ccc2ncnc(Oc3cccc(C(=O)Nc4ccccc4)c3)c21" , readout=%Inh) returns 0

What the record says about "Fc1cc(Cl)ccc1Nc1ccnc2cc(-c3ccc(CN4CCCCC4)o3)ccc12" : %Inh is 0

Notebook: "COc1ccc(Nc2nccc(-c3cccc(NC(=O)c4cc5cc(F)ccc5[nH]4)c3)n2)cc1" , %Inh read as 0

The reported %Inh of the compound "Cl.Oc1ccc(-c2nc(-c3ccccc3)[nH]c2-c2ccncc2)cc1" was 24

Record "Cc1cccc(-c2nc(-c3ccc(S(C)(=O)=O)cc3)sc2-c2ccnc(NCCc3ccccc3)c2)c1" , field %Inh: 0

Summary for this compound, "Cc1ccc(-c2cc(-c3c[nH]nc3-c3ccccn3)ccn2)cc1" : %Inh is 0

The measured %Inh associated with COc1cc2ncn(-c3cc(OCC4CCCO4)c(C(N)=O)s3)c2cc1OC (stereo not drawn) reads 7

// field: %Inh; key: "CS(=O)(=O)c1ccc(-c2c(-c3ncn[nH]3)sc(N3CCOCC3)c2C#N)cc1" ; value = 0

Note to self: %Inh recorded for "Cc1cccc(-c2nc(Nc3ccncc3)c3ccccc3n2)n1" was 0

Briefly, %Inh measured for "COc1cc2nccc(Nc3ccc(NC(=O)c4ccc(C)cc4)c(O)c3)c2cc1OC.Cl" : 0

%Inh reading for "O=C(Nc1ccccc1)Nc1cccc(Oc2ccc3nccn3n2)c1" : 0

Quick note, %Inh for "CN1C(=O)C(Nc2ccc(Cl)c(C(=O)O)c2)=C(c2ccc(Cl)cc2)C1=O" landed at 0

For this compound ( "Cn1ccc2ncnc(Oc3ccc(NC(=O)Nc4ccccc4)cc3)c21" ), measured %Inh is 16

Field %Inh (entry "Cc1cccc(-c2nc(Nc3ccc4[nH]ncc4c3)c3ccccc3n2)n1" ) reads 0

// recorded %Inh for "O=C(O)COc1ncnc2cc(-c3ccc4[nH]ncc4c3)sc12" : 0

Recorded result, "Cn1cncc1-c1ccc2ncnc(Nc3ccc(OCc4ccccc4)cc3)c2c1" , %Inh: 16

====

- System: TXK
- settings: concentration: 1 μM, replicates: in singlicate; n = 1
measuredParameter: %Inh (%)
Give the value, in units of %, as a plain number.

molecule=O=C(Nc1ccccc1)Nc1cccc(Oc2ccc3nccn3n2)c1 measuredparameter=%Inh unitabbreviation=% measured=0

# %Inh (molecule: "Cc1cccc(-c2nc(-c3ccc(S(C)(=O)=O)cc3)sc2-c2ccnc(NCCc3ccccc3)c2)c1" ) is 6

Query "COc1cccc(-c2cc(-c3c[nH]nc3-c3ccccn3)ccn2)c1" yields %Inh of 0

Lab book: %Inh of "COC(=O)c1c(-c2ccccc2)c2cc(OC)ccc2c(=O)n1Cc1ccccc1" noted as 12

For this molecule ( "Nc1ncnc2[nH]c(-c3ccccc3)nc12" ), measured %Inh is 34

// "Cl.NC(=O)c1cccc(Nc2nccc(Nc3ccc(Oc4cccc(Cl)c4)c(Cl)c3)n2)c1" : %Inh value = 0

The reported %Inh of the molecule "CS(=O)(=O)c1ccc(-c2nc3n(c2-c2ccncc2)CCC3)cc1" was 0

%Inh reading for COc1cc(Nc2nccc(N3CCC(NC(=O)Nc4cc(C)ccc4C)C3)n2)cc(OC)c1OC (stereo not drawn) : 13

Consider "Cc1ccc(C(=O)Nc2ccc(Nc3ccnc4cc(-c5ccccn5)ccc34)cc2O)cc1.Cl" . Its measured %Inh is 5
